test system: OVCAR-3 ovarian; experiment: NCI-60 one-dose screen, 48 h (100 = growth as untreated, 0 = no growth, -100 = all killed); settings: 10 µM unless noted
This is part of a sample that, as a whole, favours compounds with a hit. Of some 83,000 tested, about 20% had one in any assay.
quantity.kind: growth (%)
Write the number in % without appending the unit.

Some compounds with known growth results, for comparison:
[
  {
    "compound": "Nc1ccc(S(=O)(=O)c2ccc(NO)cc2)cc1",
    "unit.string": "%",
    "growth": 131
  },
  {
    "compound": "CCN(CCO)CCNc1ccc(C)c2sc3cc(OC)ccc3c(=O)c12",
    "unit.string": "%",
    "growth": 90.6
  },
  {
    "compound": "C/C(CCC(=O)O)=N/Nc1ccc([N+](=O)[O-])cc1",
    "unit.string": "%",
    "growth": 89.9
  }
]

Query block: Please indicate growth recorded for `Cc1ccc(CC(=O)O)c(C)c1`
Result block: 103

Query block: Please indicate growth recorded for CCC(C)CC(N)O (stereo unspecified)
Result block: 110

Query block: Please indicate growth recorded for `COc1ccc(CNCCCN2C(=O)c3ccc4c5c(ccc(c35)C2=O)C(=O)N(CCCNCc2ccc(OC)c(OC)c2OC)C4=O)c(OC)c1OC`
Result block: -91.8
